meta.source: patent US20190010203A1

TARGET_DESC: CLR/RAMP3 receptor (UniProt Q16602 23-461; O60896 24-148, limits assumed)
Sequence (Q16602 23-461 limits assumed, chain 1 of 2): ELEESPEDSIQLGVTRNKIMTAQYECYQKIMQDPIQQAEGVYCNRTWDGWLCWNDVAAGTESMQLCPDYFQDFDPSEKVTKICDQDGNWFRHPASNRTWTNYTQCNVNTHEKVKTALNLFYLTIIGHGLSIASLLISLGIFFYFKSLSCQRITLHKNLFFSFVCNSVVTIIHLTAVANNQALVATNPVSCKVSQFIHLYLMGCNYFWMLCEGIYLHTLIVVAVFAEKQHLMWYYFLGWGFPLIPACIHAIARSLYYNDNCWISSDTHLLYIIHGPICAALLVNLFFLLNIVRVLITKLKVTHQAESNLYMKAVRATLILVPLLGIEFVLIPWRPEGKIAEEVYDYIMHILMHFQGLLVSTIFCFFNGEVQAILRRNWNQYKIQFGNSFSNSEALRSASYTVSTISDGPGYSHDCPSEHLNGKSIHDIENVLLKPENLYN
Sequence (O60896 24-148 limits assumed, chain 2 of 2): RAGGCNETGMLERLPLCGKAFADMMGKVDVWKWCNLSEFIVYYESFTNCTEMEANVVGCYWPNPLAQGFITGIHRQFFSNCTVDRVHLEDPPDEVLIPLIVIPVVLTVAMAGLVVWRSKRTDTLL
MEASUREMENT_DESCRIPTION: cell-based or functional assay
*: point of attachment. Palmitoyl = CCCCCCCCCCCCCCCC(=O)*
MEASURED_ENDPOINT: EC50 (nM), CLR/RAMP3 cAMP assay
Give just the numeric value; nM need not be written.

BINDER	MEASURED_ENDPOINT	ASSAY_RESULT
KGCRFGTCTVQKLAHQIYQFTDKDKDNVAPRSKISPQGY (N-terminal miniPEG; palmitoyl on Lys 1 side chain, K(PAL); C-terminal amide) [SEQ ID NO: 69]	EC50 (nM), CLR/RAMP3 cAMP assay	0.6
miniPEG-K(Palmitoyl)GCRFGTCTVQKLAHQIYQFTDKDVAPRSKISPQGY-NH2 (ends and bridges not checked) [SEQ ID NO: 101]	EC50 (nM), CLR/RAMP3 cAMP assay	0.5
Palmitoyl-KGCRFGTCTVQKLAHQIYQFTDKDSAPVDPSSPHSY-NH2 (ends and bridges not checked) [SEQ ID NO: 92]	EC50 (nM), CLR/RAMP3 cAMP assay	0.2

Lookup: # return recorded EC50 (nM), CLR/RAMP3 cAMP assay for entry miniPEG-K(Palmitoyl)GCRFGTCTVQKLAHQIYQFTDKDSAPVDPSSPHSY-NH2 (ends and bridges not checked) [SEQ ID NO: 48]
Found: 0.07

Lookup: # return recorded EC50 (nM), CLR/RAMP3 cAMP assay for entry Palmitoyl-KGCRFGTCTVQKLAHQIYQFTDKDVAPRSKISPQGY-NH2 (ends and bridges not checked) [SEQ ID NO: 103]
Found: 0.3
